Assayed System: UGT1A9 (Homo sapiens)
Procedure Details: Drug metabolism assessed as recombinant human UGT1A9 assessed as O-glucuronidation at 10 to 400 uM incubated for 60 mins by LC-MS/MS analysis
Result Type: Km at 1 h, 400 µM (µM)

• O=C(CCCN1CCC(O)(c2ccc(Cl)cc2)CC1)c1ccc(F)cc1 [HALOPERIDOL] = 174

----------
Procedure Details: Drug excretion in human urine
Format: ADME
Conditions: read-out: Drug excretion
Result Type: dose excreted (%)

- O=C(CCCN1CCC(O)(c2ccc(Cl)cc2)CC1)c1ccc(F)cc1: 1

----------
Assayed System: UDP-glucuronosyltransferase 1A9 (Homo sapiens)
Sequence (O60656 whole entry): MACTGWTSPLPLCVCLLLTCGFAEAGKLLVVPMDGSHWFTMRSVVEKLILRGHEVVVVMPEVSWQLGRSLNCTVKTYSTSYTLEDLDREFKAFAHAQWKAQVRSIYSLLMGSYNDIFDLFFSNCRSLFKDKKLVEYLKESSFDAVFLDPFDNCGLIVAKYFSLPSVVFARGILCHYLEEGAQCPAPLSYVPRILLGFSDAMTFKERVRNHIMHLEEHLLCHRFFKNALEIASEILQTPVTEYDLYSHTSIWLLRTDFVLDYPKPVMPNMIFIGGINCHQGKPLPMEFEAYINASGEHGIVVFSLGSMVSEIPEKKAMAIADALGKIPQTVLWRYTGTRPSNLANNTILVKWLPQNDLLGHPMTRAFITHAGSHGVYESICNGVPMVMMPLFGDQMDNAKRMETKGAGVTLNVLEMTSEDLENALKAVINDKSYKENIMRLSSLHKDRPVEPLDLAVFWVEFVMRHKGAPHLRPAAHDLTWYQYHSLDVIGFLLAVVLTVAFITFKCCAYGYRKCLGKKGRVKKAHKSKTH
Procedure Details: Drug metabolism assessed as recombinant human UGT1A9 assessed as O-glucuronidation measured as inhibition constant at 10 to 400 uM incubated for 60 mins by LC-MS/MS analysis
Result Type: Ki (µM)

- O=C(CCCN1CCC(O)(c2ccc(Cl)cc2)CC1)c1ccc(F)cc1: 344
